The reported measurements were obtained from ChEMBL document CHEMBL1150587.

# System: P388
# EXPERIMENTAL_DETAILS: Cytotoxicity against mouse P388 cells
# Assay type: functional, cell-based
MEASUREMENT_LABEL: IC50
Remember to follow the number with its unit.

In plain terms, C=C1C(=O)O[C@@H]2C[C@]3(C)CC[C@]4(C)[C@H](CC[C@@H]5[C@@]6(C)CCC(=O)C(C)(C)[C@@H]6CC[C@]54C)[C@H]3[C@H]12 [OCHRACEOLIDE A] has a documented IC50 of 580 nM

---

# Tested on: KB
# EXPERIMENTAL_DETAILS: Cytotoxicity against human KB cells after 72 hrs by SRB assay
# Format: functional, cell-based
MEASUREMENT_LABEL: IC50 (µM)
Give bare numbers, in µM.

// solved cases for IC50 follow
[[record]]
molecule = "C=C1C(=O)O[C@@H]2C[C@]3(C)CC[C@]4(C)[C@H](CC[C@@H]5[C@@]6(C)CCC(=O)C(C)(C)[C@@H]6CC[C@]54C)[C@H]3[C@H]12 [OCHRACEOLIDE A]"
measurement_label = "IC50"
unit_of_measure = "µM"
quantitative_readout = 20.4

[[record]]
molecule = "CC(=O)O[C@H]1C(=O)[C@@]2(C)[C@H]([C@H](OC(=O)c3ccccc3)[C@]3(O)C[C@H](OC(=O)[C@H](O)[C@@H](NC(=O)c4ccccc4)c4ccccc4)C(C)=C1C3(C)C)[C@]1(OC(C)=O)CO[C@@H]1C[C@@H]2O"
measurement_label = "IC50"
unit_of_measure = "µM"
quantitative_readout = 0.02

[[record]]
molecule = "C=C1C(=O)[C@@]23CC[C@@H]4[C@@]5(C)CCC[C@@]4(OC5=O)[C@@]2(C)CC[C@]1(OC)C3"
measurement_label = "IC50"
unit_of_measure = "µM"
quantitative_readout = 6.4

[[record]]
molecule = "CC(O)c1cc2c(o1)C(=O)c1ccccc1C2=O (stereo unspecified)"
measurement_label = "IC50"
unit_of_measure = "µM"
quantitative_readout = 2.1

[[record]]
molecule = "C[C@@H]1CC[C@@]2(OC1)O[C@H]1C[C@H]3[C@@H]4CC=C5C[C@@H](O[C@@H]6O[C@H](CO)[C@@H](O[C@@H]7O[C@@H](C)[C@H](O)[C@@H](O)[C@H]7O)[C@H](O)[C@H]6O[C@@H]6O[C@@H](C)[C@H](O)[C@@H](O)[C@H]6O)CC[C@]5(C)[C@H]4CC[C@]3(C)[C@H]1[C@@H]2C"
measurement_label = "IC50"
unit_of_measure = "µM"
quantitative_readout = 20.7


Could you now consider this next molecule?
The value of IC50 recorded for CC1(C)CCC2=C(O1)C(=O)c1ccccc1C2=O when tested on KB reads 53.7

---

Kindly supply the reported pIC50 values for the records listed here.
# System: Lu1
# EXPERIMENTAL_DETAILS: Cytotoxicity against human Lu1 cells after 72 hrs by SRB assay
# Type: functional, cell-based
# MEASUREMENT_CONTEXT: Lu1, 72 h
One number for each entry, as −log10 of the molar value.

[[record]]
molecule = "CC1(C)CCC2=C(O1)C(=O)c1ccccc1C2=O [ALPHA-LAPACHONE]"
measurement_label = "pIC50"
quantitative_readout = 4.66

[[record]]
molecule = "C[C@@H]1CC[C@@]2(OC1)O[C@H]1C[C@H]3[C@@H]4CC=C5C[C@@H](O[C@@H]6O[C@H](CO)[C@@H](O[C@@H]7O[C@@H](C)[C@H](O)[C@@H](O)[C@H]7O)[C@H](O)[C@H]6O[C@@H]6O[C@@H](C)[C@H](O)[C@@H](O)[C@H]6O)CC[C@]5(C)[C@H]4CC[C@]3(C)[C@H]1[C@@H]2C [DIOSCIN]"
measurement_label = "pIC50"
quantitative_readout = 5.92

[[record]]
molecule = "C=C1C(=O)[C@@]23CC[C@@H]4[C@@]5(C)CCC[C@@]4(OC5=O)[C@@]2(C)CC[C@]1(OC)C3"
measurement_label = "pIC50"
quantitative_readout = 5.70

[[record]]
molecule = "C=C1C(=O)O[C@@H]2C[C@]3(C)CC[C@]4(C)[C@H](CC[C@@H]5[C@@]6(C)CCC(=O)C(C)(C)[C@@H]6CC[C@]54C)[C@H]3[C@H]12 [OCHRACEOLIDE A]"
measurement_label = "pIC50"
quantitative_readout = 4.61


Quick one: give me pIC50 for each item below, same order please.
1. CC(O)c1cc2c(o1)C(=O)c1ccccc1C2=O (stereo unspecified)
2. CC(=O)O[C@H]1C(=O)[C@@]2(C)[C@H]([C@H](OC(=O)c3ccccc3)[C@]3(O)C[C@H](OC(=O)[C@H](O)[C@@H](NC(=O)c4ccccc4)c4ccccc4)C(C)=C1C3(C)C)[C@]1(OC(C)=O)CO[C@@H]1C[C@@H]2O [PACLITAXEL]

[6.10, 8.00]
